Reference source: patent US20250011363A1

Biological target: acetylcholine receptor
Experiment: SPR, AchR immobilized on chip, peptide at 10 uM
readout: Binding affinity (RU)

{"binder": "RLFYKK [6mer-2-55]", "Binding affinity [RU]": 125}
{"binder": "KVIRRK [6mer-2-27]", "Binding affinity [RU]": 128}
{"binder": "KSVRRK [6mer-2-44]", "Binding affinity [RU]": 145}
{"binder": "RVIRRR [6mer-2-66]", "Binding affinity [RU]": 123}
{"binder": "RSQLRR [6mer-2-56]", "Binding affinity [RU]": 149}
{"binder": "RRLSKK [6mer-2-60]", "Binding affinity [RU]": 148}
{"binder": "KRLQRK [6mer-2-58]", "Binding affinity [RU]": 122}
{"binder": "KLQSRR [6mer-2-47]", "Binding affinity [RU]": 148}
{"binder": "KQRCRR [6mer-2-57]", "Binding affinity [RU]": 139}
{"binder": "KSRCRK [6mer-2-7]", "Binding affinity [RU]": 126}
{"binder": "RGFQRK [6mer-2-61]", "Binding affinity [RU]": 148}
{"binder": "RSQSKR [6mer-2-50]", "Binding affinity [RU]": 125}
{"binder": "KSYQRK [6mer-2-31]", "Binding affinity [RU]": 121}
{"binder": "RRLCRK [6mer-2-32]", "Binding affinity [RU]": 139}
{"binder": "RSYYKR [6mer-2-38]", "Binding affinity [RU]": 136}
{"binder": "RLRCRK [6mer-2-49]", "Binding affinity [RU]": 154}
{"binder": "RWRRKK [6mer-2-26]", "Binding affinity [RU]": 121}
